# test_target: human kappa opioid receptors (Homo sapiens)
# Construct: expressed in transfected cells; host or cells: U2OS
# measurement_description: [35S]GTPγS binding, membranes from U2OS cells
# Assay type: biochemical
# run_conditions: read-out: GTPγS (% efficacy)
readout_type: Emax

Name the reported Emax value associated with the compound O=C(Cc1ccc(Cl)c(Cl)c1)N1CCN(Cc2cn[nH]c2)[C@@H]2COC[C@H](N3CCCC3)[C@H]21 (racemic) 112%

State the recorded Emax for this entry: COCCS(=O)(=O)N1CCN(C(=O)Cc2ccc(Cl)c(Cl)c2)[C@H]2[C@H](N3CCCC3)COC[C@@H]21 (single isomer, unassigned) [Example 5A146B] 127%

For COCCN1CCN(C(=O)Cc2ccc(Cl)c(Cl)c2)[C@H]2[C@H]1COC[C@@H]2N1CCCC1 (single isomer, unassigned) [Example 5A141A] , what is its reported Emax? 96%

----------
# test_target: human kappa opioid receptors (Homo sapiens)
# Construct: expressed in transfected cells; host or cells: U2OS
# measurement_description: [35S]GTPγS binding, membranes from U2OS cells
# Assay type: biochemical
# run_conditions: GTPγS EC50 (nM), Table D
Provide the recorded EC50 for the entries that follow.
Just the number in nM, nothing appended.

Recorded EC50 for O=C(Cc1ccc(Cl)c(Cl)c1)N1CCN(Cc2ccc(F)cc2)[C@@H]2COC[C@H](N3CCCC3)[C@H]21 (single isomer, unassigned) [Example 5A136A] , please? 7

Given the entry CC(C)(O)C(=O)N1CCN(C(=O)Cc2ccc(Cl)c(Cl)c2)[C@H]2[C@H]1COC[C@@H]2N1CCCC1 [Example 5A96A] , report its measured EC50. 17

Report EC50 for O=C(Cc1ccc(Cl)c(Cl)c1)N1CCN(S(=O)(=O)CCO)[C@@H]2COC[C@H](N3CCCC3)[C@H]21 (single isomer, unassigned) [Example 5A140A] please. 20

EC50 lookup needed for O=C(Cc1ccc(Cl)c(Cl)c1)N1CCN(Cc2cccnc2)[C@@H]2COC[C@H](N3CCCC3)[C@H]21 (racemic) , thanks. 7.4

Consider the molecule Cc1noc(CN2CCN(C(=O)Cc3ccc(Cl)c(Cl)c3)[C@H]3[C@H]2COC[C@@H]3N2CCCC2)n1 (racemic) and give its measured EC50. 19

For CN(C)S(=O)(=O)N1CCN(C(=O)Cc2ccc(Cl)c(Cl)c2)[C@H]2[C@H]1COC[C@@H]2N1CCCC1 (single isomer, unassigned) [Example 5A56A] , what is its reported EC50? 11

Returns the measured EC50 for the input molecule. Input: NC(=O)CN1CCN(C(=O)Cc2ccc(Cl)c(Cl)c2)[C@H]2[C@H]1COC[C@@H]2N1CCCC1 (racemic) 37

// returns reported EC50 for input O=C(Cc1ccc(Cl)c(Cl)c1)N1CCN(CCCO)[C@@H]2COC[C@H](N3CCCC3)[C@H]21 (racemic) 39

Param item = Cn1nccc1CN1CCN(C(=O)Cc2ccc(Cl)c(Cl)c2)[C@H]2[C@H]1COC[C@@H]2N1CCCC1 (racemic) ; retrieve measured EC50. 9

Item O=C(Cc1ccc(Cl)c(Cl)c1)N1CCN(CCC2COC2)[C@@H]2COC[C@H](N3CCCC3)[C@H]21 (single isomer, unassigned) [Example 5A142A] has what recorded EC50? 70

I am curious: what EC50 value has been reported for O=C(Cc1ccc(Cl)c(Cl)c1)N1CCN(Cc2ncon2)[C@@H]2COC[C@H](N3CCCC3)[C@H]21 (racemic) ? 1.9

GET /values?readout=EC50&item= O=C(Cc1ccc(Cl)c(Cl)c1)N1CCN(Cc2ccccn2)[C@@H]2COC[C@H](N3CCCC3)[C@H]21 (racemic) 64

----------
# test_target: human kappa opioid receptors (Homo sapiens, UniProt P41145)
# Construct: expressed in transfected cells; host or cells: U2OS
# Sequence (P41145 whole entry): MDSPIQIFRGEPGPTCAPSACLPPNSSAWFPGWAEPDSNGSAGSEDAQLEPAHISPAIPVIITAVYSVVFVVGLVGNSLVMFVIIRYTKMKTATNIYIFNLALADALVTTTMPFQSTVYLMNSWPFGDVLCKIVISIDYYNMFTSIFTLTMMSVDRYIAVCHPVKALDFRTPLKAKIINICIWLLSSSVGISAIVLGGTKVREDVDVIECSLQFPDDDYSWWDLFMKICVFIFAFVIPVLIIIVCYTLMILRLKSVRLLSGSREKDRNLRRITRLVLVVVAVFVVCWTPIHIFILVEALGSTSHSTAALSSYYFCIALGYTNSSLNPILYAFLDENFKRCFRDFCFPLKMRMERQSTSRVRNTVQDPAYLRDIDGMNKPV
# measurement_description: [35S]GTPγS binding, membranes from U2OS cells
# Format: biochemical
# run_conditions: GTPγS potency (nM), Table E
Can you tell me EC50 for the items I'm about to list?
Write the number in nM without appending the unit.

What value of EC50 on human kappa opioid receptors (Homo sapiens, UniProt P41145) does CC(C)(O)C(=O)N1CCN(C(=O)Cc2ccc(Cl)c(Cl)c2)[C@H]2[C@H](N3CCCC3)COC[C@@H]21 [Example 5A96B] have? 71.4

Form field - read-out: EC50; system: human kappa opioid receptors (Homo sapiens, UniProt P41145); submitted item: CC(C)(O)CN1CCN(C(=O)Cc2ccc(Cl)c(Cl)c2)[C@H]2[C@H](N3CCCC3)COC[C@@H]21 (single isomer, unassigned) [Example 5A90B] 8.9

Lab note: need EC50 with human kappa opioid receptors (Homo sapiens, UniProt P41145) for entry CC(C)(O)CN1CCN(C(=O)Cc2ccc(Cl)c(Cl)c2)[C@H]2[C@H]1COC[C@@H]2N1CCCC1 (single isomer, unassigned) [Example 5A90A] , please look it up. 34.7

Recorded EC50 for CC(C)(O)C(=O)N1CCN(C(=O)Cc2ccc(Cl)c(Cl)c2)[C@H]2[C@H]1COC[C@@H]2N1CCCC1 [Example 5A96A] with human kappa opioid receptors (Homo sapiens, UniProt P41145), please? 32.8

----------
Task for the reader: assign each of the following compounds its reported Arrestin efficacy, %.
# test_target: kappa opioid receptor (hOPRK1) β-arrestin (Homo sapiens, UniProt P41145)
# Sequence (P41145 whole entry): as above
# measurement_description: β-arrestin PathHunter assay (U2OS hOPRK1)
# run_conditions: Table E

I'd like to know its Arrestin efficacy, %. The compound in question is CC(C)(O)C(=O)N1CCN(C(=O)Cc2ccc(Cl)c(Cl)c2)[C@H]2[C@H](N3CCCC3)COC[C@@H]21 [Example 5A96B] 60.7%

Item CC(C)(O)CN1CCN(C(=O)Cc2ccc(Cl)c(Cl)c2)[C@H]2[C@H]1COC[C@@H]2N1CCCC1 (single isomer, unassigned) [Example 5A90A] has what recorded Arrestin efficacy, %? 78.1%

Looking for the measured Arrestin efficacy, % of CC(C)(O)C(=O)N1CCN(C(=O)Cc2ccc(Cl)c(Cl)c2)[C@H]2[C@H]1COC[C@@H]2N1CCCC1 [Example 5A96A] , can you help? 53.0%

Request the reported Arrestin efficacy, % associated with CC(C)(O)CN1CCN(C(=O)Cc2ccc(Cl)c(Cl)c2)[C@H]2[C@H](N3CCCC3)COC[C@@H]21 (single isomer, unassigned) [Example 5A90B] 46.5%

----------
Please respond with reported EC50 for every item in the list.
# test_target: human kappa opioid receptors (Homo sapiens)
# Construct: expressed in transfected cells; host or cells: U2OS
# measurement_description: [35S]GTPγS binding, membranes from U2OS cells
# Assay type: biochemical
# run_conditions: GTPγS EC50 (nM), Table D
Kindly answer with a numeric value in nM, unit omitted.

// returns reported EC50 for input O=C(Cc1ccc(Cl)c(Cl)c1)N1CCN(CC2CCOC2)[C@@H]2COC[C@H](N3CCCC3)[C@H]21 (stereo partly drawn) 46

Can you share its EC50? I mean this compound: O=C(Cc1ccc(Cl)c(Cl)c1)N1CCN(Cc2ccc(F)cc2)[C@H]2COC[C@@H](N3CCCC3)[C@@H]21 (single isomer, unassigned) [Example 5A136B] 74

Reported EC50 for O=C(Cc1ccc(Cl)c(Cl)c1)N1CCN(Cc2ccon2)[C@H]2COC[C@@H](N3CCCC3)[C@@H]21 [Example 5A86B] : what is it? 23

Would you mind telling me what EC50 value was observed for O=C(Cc1ccc(Cl)c(Cl)c1)N1CCN(C(=O)c2ccon2)[C@@H]2COC[C@H](N3CCCC3)[C@H]21 (racemic) ? 0.8

What measured EC50 goes with Cc1nnc(CN2CCN(C(=O)Cc3ccc(Cl)c(Cl)c3)[C@H]3[C@H]2COC[C@@H]3N2CCCC2)o1 (racemic) ? 40

Fill blank: measured EC50 of the compound COCCS(=O)(=O)N1CCN(C(=O)Cc2ccc(Cl)c(Cl)c2)[C@H]2[C@H]1COC[C@@H]2N1CCCC1 (single isomer, unassigned) [Example 5A146A] is ____. 9.2

----------
# test_target: human kappa opioid receptors (Homo sapiens)
# Construct: expressed in transfected cells; host or cells: U2OS
# measurement_description: [35S]GTPγS binding, membranes from U2OS cells
# Format: biochemical
# run_conditions: Table E
So I've got a bunch of compounds here, and I need their GTPγS efficacy, % values.
Value expressed in %; do not type the unit.

Query: GTPγS efficacy, %; subject: CC(C)(O)CN1CCN(C(=O)Cc2ccc(Cl)c(Cl)c2)[C@H]2[C@H]1COC[C@@H]2N1CCCC1 (single isomer, unassigned) [Example 5A90A] 91.0

Reported GTPγS efficacy, % for CC(C)(O)CN1CCN(C(=O)Cc2ccc(Cl)c(Cl)c2)[C@H]2[C@H](N3CCCC3)COC[C@@H]21 (single isomer, unassigned) [Example 5A90B] : what is it? 69.3

Consider the compound shown here: CC(C)(O)C(=O)N1CCN(C(=O)Cc2ccc(Cl)c(Cl)c2)[C@H]2[C@H](N3CCCC3)COC[C@@H]21 [Example 5A96B] What is its recorded GTPγS efficacy, %? 123.5

If you can, please state the reported GTPγS efficacy, % value of CC(C)(O)C(=O)N1CCN(C(=O)Cc2ccc(Cl)c(Cl)c2)[C@H]2[C@H]1COC[C@@H]2N1CCCC1 [Example 5A96A] . 77.0
